Data provenance is PubChem BioAssay (NCI).

# System: RXF 393 renal
# assay: NCI tumour cell line growth inhibition, 48 h
propertyMeasured: TGI (µM)
Answer in µM, number only, no unit symbol.

Solved entries:
{"columns": ["molecule", "targetSystem", "TGI [µM]"],
 "data": [
  ["COc1ccc(CC(C)C(C)Cc2ccc(OC)c(OC)c2)cc1OC (stereo unspecified)", "RXF 393 renal", 950],
  ["O=c1oc(-c2ccc(O)c(O)c2)cc2cccc(O)c12", "RXF 393 renal", 69.3],
  ["CCOC(=O)/C=C(\\C)c1ccc(C)cc1C", "RXF 393 renal", 27.7]
]}

Turning now to a further molecule:
The measured TGI associated with "CC(=O)N[C@H](C(=O)N[C@@H](CCCNC(=N)N)C(=O)N[C@@H](CCCCN)C(=O)N[C@@H](CCCNC(=N)N)C(=O)N[C@]1(C)CCCCCC/C=C\CCC[C@@](C)(C(=O)N[C@@H](CCCNC(=N)N)C(=O)N[C@@H](CCC(=O)O)C(=O)N[C@@H](CC(C)C)C(=O)N[C@H](C(=O)N[C@@H](CCC(=O)O)C(N)=O)C(C)C)NC(=O)[C@H](CCC(N)=O)NC(=O)[C@H](CC(C)C)NC(=O)[C@H](CC(C)C)NC(=O)[C@H](CCCNC(=N)N)NC(=O)[C@H](CCCNC(=N)N)NC(=O)[C@H](CC(C)C)NC1=O)C(C)C" reads 4.77
